These data points were gathered from paper PMC3608651.

- assayed-target: HLA-B*58:01 (Homo sapiens, UniProt P01889, A329T/C349S/D201E/D98Y/E176V/E187L/E204Q/E69T/G107R/I218V/I90N/K202T/L105A/L119I/N104I/N87E/Q89R/Q94S/R106L/R155S/R180L/R86G/S101N/S121R/S35A/S48A/T118I/V127L/V306I/V36M/Y140S/Y91M)
- Format: binding
- details: percent relative the binding of positive control peptide […]; duplicated experiments; positive binder >40%
measured-metric: Bind B*58:01 (%)

substance | test-value
MILAAYHPQ | 11
NTPAFEWYY | 36
YLLDGLRAQ | 0
ELGGANIPA | 0
WQGDTGITY [Rv0288_43–51] | 33
GGYKAADMW | 61
KAADMW GPS | 21
ACGKAGCQT | 0
GPSLIGLAM | 18
AVKPTGSAA | 0
SFYSDW YSP | 0
VFNFPPNGT | 33
CGKAGCQT Y | 35
AAYHPQQFI | 64
GSSAMILAA | 29
GGHNAVFNF | 52
SPAVYLLDG | 0
SLIGLAMGD | 0
DINTPAFEW | 58
SSAMILAAY | 90
NNTRLW VYC | 11

====

- assayed-target: HLA-A*02:01 (Homo sapiens, UniProt P04439, D140Y/D185E/D98H/E176V/E277Q/G131W/G231S/I119V/I121R/I166T/I218V/L300P/L318F/N151K/N90K/P208A/P217A/Q86G/Q94H/R138H/R169H/T345S)
- Type: binding
- details: […]; peptide quantity for 50% binding saturation
Listed substances paired with reported Aff A*02:01 (ED50)
measured-metric: Aff A*02:01 (ED50) (M)

substance | test-value
QIMYNYPTM [Rv0288_3–11m1] | 3e-06
LSMAGSSAM | 2e-07
MAGSSAMIL | 7e-07
IMYNYPTML [Rv0288_4–12m1] | 4e-07
MLDHAGDMA [Rv0288_11–19m1] | 6e-08
GLSIVMPVG | 7e-08

====

- assayed-target: HLA-A*24:02 (Homo sapiens, UniProt P04439, D101N/D140Y/D185E/E176V/E190D/F33S/G103R/G107R/I119L/I121M/I306V/K335N/L105A/L180Q/L300P/N151K/N90K/Q86E/Q94H/R106L/R138H/R89G/T104I/T345S/V100E/W191G/Y123F)
- Type: binding
- details: time points 0-8 h
Listed substances paired with reported O-rate A*24:02 (t1/2)
measured-metric: O-rate A*24:02 (t1/2) (min)

substance | measured-metric | unit-info | test-value
YWGAQLNAM | O-rate A*24:02 (t1/2) | min | 30
IMYNYPTML [Rv0288_4–12m1] | O-rate A*24:02 (t1/2) | min | 30
QWLSANRAV | O-rate A*24:02 (t1/2) | min | 24
AMKGDLQSS | O-rate A*24:02 (t1/2) | min | 18
MYNYPTMLG [Rv0288_5–13m1] | O-rate A*24:02 (t1/2) | min | 30
KAGCQTYKW | O-rate A*24:02 (t1/2) | min | 114
MYNYPTMLD [Rv0288_5–13m3] | O-rate A*24:02 (t1/2) | min | 30
SMAGSSAMI | O-rate A*24:02 (t1/2) | min | 24
SGSEAYQGV [Rv3875_46–54] | O-rate A*24:02 (t1/2) | min | 30
QT YKWETFL | O-rate A*24:02 (t1/2) | min | 120
GWDINTPAF | O-rate A*24:02 (t1/2) | min | 66
GYAGTLQNL [Rv0288_20–28m1] | O-rate A*24:02 (t1/2) | min | 18
MYNYPAMLD [Rv0288_5–13m2] | O-rate A*24:02 (t1/2) | min | 24
QIMYNYPTM [Rv0288_3–11m1] | O-rate A*24:02 (t1/2) | min | 30
YAGSLSALL | O-rate A*24:02 (t1/2) | min | 72
AYQGVQQKW [Rv3875_50–58] | O-rate A*24:02 (t1/2) | min | 24
